Assay: Human liver microsomal stability of compound in microsomal protein, PBS buffer pH 7.4, NADPH, glucose-6-phosphate and glucose-6-phosphate dehydrogenase media. Aliquotes were taken at 5 time points and after stopping the reaction, supernatants were analyzed using HPLC coupled with a tandem mass spectrometer. The elimination constant, half-life, and intrinsic clearance are determined as results using linear regression analysis. The assay has been performed by Enamine biological services, Bienta Ltd.The protocol is publicly available: dx.doi.org/10.17504/protocols.io.5qpvokdb9l4o/v1
Format: ADME, microsomes, Microsome
Conditions: liver microsomes
READOUT LABEL: half-life (min)
One number for each entry, in min.

CC(C)[C@@H](Nc1ncnc2[nH]cc(C(N)=O)c12)c1ccc2c(c1)OCCO2; 11.7
CC(C)(C)[C@@H](Nc1ncnc2[nH]c(-c3cnn(CC(N)=O)c3)cc12)c1ccc2c(c1)OCCO2; 12.6
CC(C)[C@H](Nc1ncnc2[nH]c(-c3cnn(C)c3C#N)cc12)c1ccc2c(n1)OCCO2; 100

For every item in the list below, what is its measured half-life?
1. CC(C)[C@@H](Nc1ncnc2[nH]c(-c3cnn(C)c3C#N)cc12)c1ccc2c(c1)OCCO2
2. COCCNC(=O)c1c[nH]c2ncnc(N[C@@H](c3ccc4c(c3)S(=O)(=O)CCC4)C(C)C)c12
3. CNC(=O)c1cc2c(N[C@@H](c3ccc4c(c3)OCCO4)C(C)C)ncnc2[nH]1
4. CNC(=O)c1c[nH]c2ncnc(N[C@@H](c3ccc4c(c3)NC(=O)CO4)C(C)C)c12
5. CC(C)[C@@H](Nc1ncnc2[nH]c(-c3cncc(S(C)(=O)=O)c3)cc12)c1ccc2c(c1)S(=O)(=O)CCC2

Solution:
[22.6, 3.1, 21.1, 19.5, 2.6]

---

Give CLint for every item shown.
Assay: Human liver microsomal stability of compound in microsomal protein, PBS buffer pH 7.4, NADPH, glucose-6-phosphate and glucose-6-phosphate dehydrogenase media. Aliquotes were taken at 5 time points and after stopping the reaction, supernatants were analyzed using HPLC coupled with a tandem mass spectrometer. The elimination constant, half-life, and intrinsic clearance are determined as results using linear regression analysis. The assay has been performed by Enamine biological services, Bienta Ltd.The protocol is publicly available: dx.doi.org/10.17504/protocols.io.5qpvokdb9l4o/v1
Type: ADME, microsomes, Microsome
Settings: microsomes
Give bare numbers, in µL/min/mg.

CC(C)[C@@H](Nc1ncnc2[nH]c(-c3cnn(C)c3C#N)cc12)c1ccc2c(c1)S(=O)(=O)CCC2; 516
CC(C)(C)[C@@H](Nc1ncnc2[nH]c(-c3cnn(CC(N)=O)c3)cc12)c1ccc2c(c1)OCCO2; 100
CC(C)(C)[C@@H](Nc1ncnc2[nH]c(-c3cnn(CC(N)=O)c3)cc12)c1ccc2c(n1)OCCO2; 42

Exercise: Endpoint output: CLint of CC(C)[C@@H](Nc1ncnc2[nH]c(-c3cnn(C)c3C#N)cc12)c1ccc2c(n1)NC(=O)CO2 . Value?
Solution: 51

---

Experiment: Mouse liver microsomal stability of compound in microsomal protein, PBS buffer pH 7.4, NADPH, glucose-6-phosphate and glucose-6-phosphate dehydrogenase media. Aliquotes were taken at 5 time points and after stopping the reaction, supernatants were analyzed using HPLC coupled with a tandem mass spectrometer. The elimination constant, half-life, and intrinsic clearance are determined as results using linear regression analysis. The assay has been performed by Enamine biological services, Bienta Ltd.The protocol is publicly available: dx.doi.org/10.17504/protocols.io.5qpvokdb9l4o/v1
Assay type: ADME, microsomes, Microsome
Conditions: microsomes
Give Remaining (without cofactor) for every item shown.
One number for each entry, in %.

The following compounds have reported results that may help.
CCNC(=O)c1cc2c(N[C@@H](c3ccc4c(c3)S(=O)(=O)NCC4)C(C)C)ncnc2[nH]1; 101
O=C(Nc1cccc2c(C(=O)N[C@@H]3c4ccccc4C[C@@H]3C(=O)O)c[nH]c12)NC1CC1; 105
CC(C)[C@@H](Nc1ncnc2[nH]c(-c3cnn(C)c3C#N)cc12)c1ccc2c(n1)NC(=O)CO2; 92
CC(C)[C@H](Nc1ncnc2[nH]ccc12)c1ccc2c(c1)S(=O)(=O)CCC2; 104
Cn1ncc(-c2cc3c(N[C@@H](c4ccc5c(c4)OCCO5)C(C)(C)C)ncnc3[nH]2)c1C#N; 100
CNC(=O)c1c[nH]c2ncnc(N[C@@H](c3ccc4c(c3)NC(=O)CO4)C(C)C)c12; 95
CC(C)[C@H](Nc1ncnc2[nH]c(-c3cnn(C)c3C#N)cc12)c1ccc2c(c1)NC(=O)CO2; 96
CC(C)(C)[C@H](Nc1ncnc2[nH]c(-c3cnn(CC(N)=O)c3)cc12)c1ccc2c(c1)OCCO2; 105

Field: next compound
Exercise: Endpoint output: Remaining (without cofactor) of CNC(=O)c1c[nH]c2ncnc(N[C@@H](c3ccc4c(c3)OCCO4)C(C)C)c12 . Value?
Solution: 95
